System: haematopoietic & lymphoid tumors (13 cell lines)
protocol description: CellTiter-Glo Viability Assay, haematopoietic & lymphoid tumors
Type: cell-based
particulars: Homo sapiens; TOLEDO cell line; inhibition of cancer cell proliferation; read-out: Haematopoietic & Lymphoid tumors, EC50 (μM) TOLEDO
Lab note: cut-off is 0.1 µM. Strictly less in EC50 is Fulfilled. Exactly 0.1 µM or more is Not fulfilled.

As a guide, the following entries are already answered.
structure: CN(C)C1CN(c2cc(C(=O)Nc3cc4cc(-c5cnn(C)c5)ccc4cn3)ccn2)C1
qualitative label: Not fulfilled

structure: Cc1ncc(-c2ccc3cnc(NC(=O)c4cnn(C5CCN(C)CC5)c4)cc3c2)o1
qualitative label: Fulfilled

structure: O=C1COc2cccc(c2)-c2cncc3[nH]c(nc23)-c2n[nH]c3ccc(cc23)-c2cncc(c2)N1
qualitative label: Not fulfilled

structure: CN1CCC(Sc2ccc3cnc(NC(=O)c4ccnc(SC5CCN(C)CC5)c4)cc3c2)CC1
qualitative label: Not fulfilled

structure: Cn1ncc(-c2ccc3cnc(NC(=O)C4CC5(C4)CN(CCF)C5)cc3c2)c1CN1CCCCC1
qualitative label: Not fulfilled

structure: Cc1n[nH]c2ccc(-c3cncc(N[C@H]4CC[C@H](O)CC4)n3)cc12
qualitative label: Not fulfilled

structure: Cc1ncc(C(=O)Nc2cc3nc(-c4cnc(C)n4C)ccc3cn2)s1
qualitative label: Not fulfilled

Consider the additional compound presented here.
# check: EC50 < 0.1 µM for "CN1CCN(c2cc(C(=O)Nc3cc4cc(-c5cnn(C)c5N)ccc4cn3)ccn2)CC1"
Fulfilled

###

Entries and their log10 of EC50 values follow.
System: haematopoietic & lymphoid tumors (13 cell lines)
protocol description: CellTiter-Glo Viability Assay, haematopoietic & lymphoid tumors
Format: cell-based
particulars: Homo sapiens; TF-1 cell line; inhibition of cancer cell proliferation; read-out: Haematopoietic & Lymphoid tumors, EC50 (μM) TF-1
Could you please treat all values as log10 of EC50 in µM?

Answered cases to consult:
structure: CN1CCN(c2cc(Nc3ncc4c(-c5ccc6ncccc6c5)c[nH]c4n3)ccn2)CC1
log10 of EC50: -0.10

structure: CS(=O)(=O)NCc1cc(F)cc(-c2nccc3[nH]c(-c4n[nH]c5ccc(-c6cncc(NC(=O)C7CCC7)c6)cc45)cc23)c1
log10 of EC50: 0.67

structure: CN1CCC(Oc2ccc(NC(=O)c3n[nH]cc3/C=C/c3cccnc3)cn2)CC1
log10 of EC50: 0.56

structure: CN1CCN(c2cc(C(=O)Nc3cc4cc(-c5cn(C)nn5)ccc4cn3)ccn2)CC1
log10 of EC50: -0.44

What the record says about "Cn1ncc(-c2ccc3cnc(NC(=O)c4cccc(CN5CCCC5)c4)cc3c2)c1CN1CCCCC1" : log10 of EC50 is -0.05

Given item "CN1CC=C(c2cc(C(=O)Nc3cc4cc(-c5cncc(NC(C)(C)C)n5)cnc4cn3)ccn2)CC1" , the value recorded as its log10 of EC50 is 0.32

Note to self: log10 of EC50 recorded for "c1cncc(-c2ccc3[nH]nc(-c4cc5c(-c6cccnc6)cncc5[nH]4)c3c2)c1" was 0.47

Form field log10 of EC50, entry "CN1CCCCN(C)c2nccc3[nH]c(nc23)-c2n[nH]c3ccc(cc23)-c2cncc(c2)C1" : -0.04

Field log10 of EC50 (entry "CN1CCN(c2cc(C(=O)Nc3cc4cc(-c5cnn(C)c5)c(F)cc4cn3)ccn2)CC1" ) reads -0.46

###

experimental system: CLK2 (Homo sapiens, UniProt P49760)
Construct: purchased Thermo Fisher (Life Technologies), Z'-LYTE Kinase Assay Kits
Sequence (P49760 whole entry): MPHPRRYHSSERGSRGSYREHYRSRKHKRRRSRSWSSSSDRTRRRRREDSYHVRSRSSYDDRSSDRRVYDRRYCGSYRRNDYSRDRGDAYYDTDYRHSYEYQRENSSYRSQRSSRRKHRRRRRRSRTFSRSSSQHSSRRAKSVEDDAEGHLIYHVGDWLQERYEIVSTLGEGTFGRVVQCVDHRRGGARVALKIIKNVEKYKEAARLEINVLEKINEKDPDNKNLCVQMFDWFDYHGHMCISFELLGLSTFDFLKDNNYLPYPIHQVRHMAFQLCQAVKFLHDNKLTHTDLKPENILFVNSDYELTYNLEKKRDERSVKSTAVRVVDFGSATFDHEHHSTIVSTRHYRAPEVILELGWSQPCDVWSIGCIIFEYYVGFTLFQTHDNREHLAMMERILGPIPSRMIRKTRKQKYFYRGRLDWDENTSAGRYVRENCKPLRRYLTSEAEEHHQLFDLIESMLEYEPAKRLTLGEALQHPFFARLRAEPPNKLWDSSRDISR
protocol description: CLK2 kinase activity assay (Z-lyte, Ser/Thr 6 peptide)
Assay type: biochemical
particulars: recombinant CLK2 kinase, ATP 60 μM; read-out: EC50
Protocol: All reactions were performed in duplicate.
property name: EC50
Write the figure, then the unit, nothing else.

Some solved entries appear below for comparison.
compound: CN1CCN(c2cc(C(=O)Nc3cc4cc(-c5cn(C)nn5)ccc4cn3)ccn2)CC1 [Compound 14]
EC50: 2 nM
--
compound: O=C(Nc1cc2cc(-c3cncc(NC4CCNC[C@@H]4F)n3)ccc2cn1)C1CC1 (some centres unmarked) [Compound 22]
EC50: 2 nM
--
compound: CN(C)CCOc1cncc(-c2cc3c(-c4cc5c(-c6cccnc6)ccnc5[nH]4)n[nH]c3cn2)c1 [Compound 49]
EC50: 2.2 nM
--
compound: Cc1n[nH]c2cc(F)c(-c3cncc(CN4CCNCC4)c3)cc12 [Compound 63]
EC50: 12 nM
--
compound: Cn1ncc(-c2ccc3cnc(NC(=O)C4CC5(C4)CN(CCF)C5)cc3c2)c1CN1CCCCC1 [Compound 77]
EC50: 5.8 nM

EC50 for Cc1ncc(NC(=O)c2n[nH]c3ccc(-c4cnn(C5CCNCC5)c4)cc23)s1 [Compound 5] is 0.3 nM

Looking up O=C(Nc1cc2cc(-c3cncc(NCC4(F)CNC4)n3)ccc2cn1)C1CC1 [Compound 21] , I see its EC50 listed as 1 nM

So, CN1CCC(Oc2ccc(NC(=O)c3n[nH]cc3/C=C/c3cccnc3)cn2)CC1 [Compound 93] ? Its EC50 was 3.7 nM

###

experimental system: CLK3 (Homo sapiens)
Sequence (P49761 whole entry): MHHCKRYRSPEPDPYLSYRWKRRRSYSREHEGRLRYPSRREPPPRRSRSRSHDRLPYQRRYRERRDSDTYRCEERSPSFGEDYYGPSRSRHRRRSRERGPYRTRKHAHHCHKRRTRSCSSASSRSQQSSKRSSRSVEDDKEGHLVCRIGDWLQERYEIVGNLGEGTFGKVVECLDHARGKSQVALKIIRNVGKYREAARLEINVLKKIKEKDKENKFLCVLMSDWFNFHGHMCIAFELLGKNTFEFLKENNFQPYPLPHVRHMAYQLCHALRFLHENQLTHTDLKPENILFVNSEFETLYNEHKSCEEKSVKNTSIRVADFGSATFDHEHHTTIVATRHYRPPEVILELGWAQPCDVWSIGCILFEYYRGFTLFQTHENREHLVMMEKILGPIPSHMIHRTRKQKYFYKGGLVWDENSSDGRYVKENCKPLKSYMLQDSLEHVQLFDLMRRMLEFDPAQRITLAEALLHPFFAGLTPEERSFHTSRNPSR
protocol description: CLK3 kinase activity assay (Z-lyte, Ser/Thr 18 peptide)
property name: pEC50
Entry type: numeric. Quantity: pEC50, the -log10 of concentration in molar units.

Look over these answered cases.
structure: Cn1ncc(-c2ccc3cnc(NC(=O)c4cccc(CN5CCCC5)c4)cc3c2)c1CN1CCCCC1
experimental system: CLK3 (Homo sapiens)
recorded number: 7.84

structure: O=C(Nc1c[nH]nc1-c1nc2c(-c3cccc(F)c3)cncc2[nH]1)C1CCNCC1
experimental system: CLK3 (Homo sapiens)
recorded number: 7.52

structure: CC(C)Oc1ccc(C(=O)Nc2cc3cc(-c4cnc5n4CCNC5)ccc3cn2)cc1
experimental system: CLK3 (Homo sapiens)
recorded number: 6.79

structure: CN(C)CCN(C)c1ccc(NC(=O)c2n[nH]c3ccc(-c4cncc(CN5CCCCC5)c4)cc23)cn1
experimental system: CLK3 (Homo sapiens)
recorded number: 7.77

structure: Cc1ccc([N+](=O)[O-])cc1S(=O)(=O)N(C)/N=C/c1cnc2ccc(Br)cn12
experimental system: CLK3 (Homo sapiens)
recorded number: 7.82

response.value for "CN1CCC(Oc2ccc(C(=O)Nc3cc4cc(-c5cnn(C)c5)ccc4cn3)cc2)CC1" (field: pEC50) = 7.87

The reported pEC50 of the molecule "O=C1CCc2cccc(c2)-c2cncc3[nH]c(nc23)-c2n[nH]c3ccc(cc23)-c2cncc(c2)N1" was 7.55

###

Reported values of EC50 for individual entries
Tested on: ovarian cancer (4 cell lines)
protocol description: CellTiter-Glo Viability Assay, ovarian cancer
Assay type: cell-based
particulars: Homo sapiens, PA-1; PA1 cell line; inhibition of cancer cell proliferation; read-out: Ovarian cancer, EC50 (μM) PA1
Provide the reading as a plain figure in µM.

structure: c1cncc(-c2ccc3[nH]nc(-c4cc5c(-c6cccnc6)cncc5[nH]4)c3c2)c1
scale unit: µM
EC50: 1.29
//
structure: CN(C)C1CN(c2cc(C(=O)Nc3cc4cc(-c5cnn(C)c5)ccc4cn3)ccn2)C1
scale unit: µM
EC50: 0.585
//
structure: [2H]c1c([2H])c([2H])c(/C=C/C(=O)Nc2cc3cc(-c4cncn4C)ccc3cn2)c([2H])c1[2H]
scale unit: µM
EC50: 0.218

Value of measured EC50 for the entry "Cc1ncc(C(=O)Nc2cc3nc(-c4cnc(C)n4C)ccc3cn2)s1" : 0.175

Item: "CN1CCC(C(=O)Nc2c[nH]nc2-c2nc3c(-c4ccc(F)s4)cccc3[nH]2)CC1" | EC50: 0.23

Memo: "Cc1ncc(-c2ccc3cnc(NC(=O)c4cnn(C5CCN(C)CC5)c4)cc3c2)o1" , reported EC50: 0.17

Reported EC50 of "CN(C)C1CCN(c2cc(C(=O)Nc3ncc4ccc(-c5cn(C)nn5)cc4n3)ccn2)CC1" : 3.18

Value of measured EC50 for the entry "CN1CCN(c2cc(C(=O)Nc3cc4cc(-c5nnc(N(C)C)s5)ccc4cn3)ccn2)CC1" : 0.643

###

System: liver cancer (3 cell lines)
protocol description: CellTiter-Glo Viability Assay, liver cancer
Format: cell-based
particulars: Homo sapiens, SNU-398; SNU398 cell line; inhibition of cancer cell proliferation; read-out: Liver cancer, EC50 SNU398
property name: pEC50
Keep it numeric: pEC50 is minus log10 of the concentration in mol/L.

Below: 6 compounds and their reported pEC50.
structure: Cn1ncc(-c2ccc3cnc(NC(=O)c4cccc(CN5CCCC5)c4)cc3c2)c1CN1CCCCC1
pEC50: 6.88
//
structure: c1cc2cc(c1)-c1cncc3[nH]c(nc13)-c1n[nH]c3ccc(cc13)-c1cncc(c1)CNC2
pEC50: 7.68
//
structure: O=C1CCc2cccc(c2)-c2cncc3[nH]c(nc23)-c2n[nH]c3ccc(cc23)-c2cncc(c2)N1
pEC50: 6.22
//
structure: CC(C)CC(=O)Nc1cncc(-c2ccc3[nH]nc(-c4cc5c(N6CCCCC6)cncc5[nH]4)c3c2)c1
pEC50: 7.04
//
structure: CN1CC=C(c2cc(C(=O)Nc3cc4cc(-c5cncc(NC(C)(C)C)n5)cnc4cn3)ccn2)CC1
pEC50: 6.34
//
structure: CN1CCC2(CC1)CN(c1cc(C(=O)Nc3cc4cc(-c5cnn(C)c5CO)ccc4cn3)ccn1)C2
pEC50: 6.92

Now for the compound whose pEC50 we want.
Given item "Cn1cc(-c2ccc3cnc(NC(=O)c4ccc5c(c4)CNCC5)cc3c2)cn1" , the value recorded as its pEC50 is 6.92

Source of measurements: patent US20220062240A1
